Recorded values, source patent US5032597A.

Task for the reader: assign each of the following compounds its reported response vs control in vivo at 12.5 mg/kg.
test system: L1210 leukemia; experiment: Lymphoid Leukemia L1210, survival of tumored mice; assay type: in vivo, CD2F1 mice; conditions: Mus musculus, L1210, ip, 720 h, 12.5 mg/kg i.p.; read-out: L1210 Leukemia % T/C (median survival time)
Number plus unit, in that order.

Request: Look up L1210 leukemia data: response vs control in vivo at 12.5 mg/kg of Cc1c(-c2ccc(-c3ccc(Br)cc3)cc2)nc2ccc(F)cc2c1C(=O)O [Example 102] , then report it.
Response: 164%

Request: State the measured response vs control in vivo at 12.5 mg/kg (L1210 leukemia) of Cc1c(-c2ccc(-c3ccccc3F)cc2)nc2ccc(F)c(Cl)c2c1C(=O)O [Example 167]
Response: 197%

Request: Consider the compound Cc1c(-c2ccc(-c3ccc(F)cc3F)cc2)nc2ccc(F)cc2c1C(=O)O [Example 188] tested on L1210 leukemia; state its response vs control in vivo at 12.5 mg/kg.
Response: 187%

Request: State response vs control in vivo at 12.5 mg/kg on L1210 leukemia. Entry: Cc1c(-c2ccc(-c3ccc(Br)cc3)cc2)nc2ccc(Cl)cc2c1C(=O)O [Example 175]
Response: 156%

---

tested on: human colon carcinoma cells HCT-15; assay: Human colon tumor test in vitro, HCT-15 cell growth inhibition; format: cell-based; details: Homo sapiens, HCT-15, 72 h, HCT-15 cells, compound day 1 to day 4; read-out: in vitro HCT-15 ID50 (50 percent inhibition of number of doublings)
Please go through the items and note down their IC50.

Request: Please list IC50 recorded for the molecule Cc1ccc(-c2ccc(-c3nc4ccc(F)cc4c(C(=O)O)c3C)cc2)cc1
Response: < 0.5 µg/mL

Request: # return recorded IC50 for input CCc1c(-c2ccc(C3CCCCC3)cc2)nc2ccc(C)cc2c1C(=O)O
Response: 0.28 µg/mL

Request: Annotate the molecule Cc1c(-c2ccc(-c3ccccc3)c(F)c2)nc2ccc(F)cc2c1C(=O)O with its measured IC50.
Response: 0.02 µg/mL

Request: Specify IC50 for O=C(O)c1cc(-c2ccc(-c3ccccc3)cc2)nc2ccc(F)cc12 and stop.
Response: < 0.5 µg/mL

Request: Hello, please tell me recorded IC50 for this one: CCCCCCc1ccc(-c2nc3ccc(F)cc3c(C(=O)O)c2C)cc1
Response: 0.4 µg/mL

Request: Please look at this molecule and report its IC50: Cc1ccc2c(C(=O)O)c(C)c(-c3ccc(-c4ccccc4)cc3)nc2c1
Response: < 0.5 µg/mL

Request: Read off the recorded IC50 for Cc1c(-c2ccc(Oc3ccccc3)cc2)nc2ccc(Cl)cc2c1C(=O)O
Response: < 0.5 µg/mL

Request: Tell us which IC50 value is on record for Cc1c(-c2ccc(Cc3ccccc3)cc2)nc2ccc(Cl)cc2c1C(=O)O
Response: < 0.5 µg/mL

Request: Find the measured IC50 of Cc1c(-c2ccc(-c3ccc(F)cc3F)cc2)nc2ccc(F)cc2c1C(=O)O and report it.
Response: < 0.01 µg/mL

Request: Identify measured IC50 associated with O=C(O)c1cc(-c2ccc(C3CCCCC3)cc2)nc2ccc(Cl)cc12
Response: 0.48 µg/mL

Request: Please give the documented IC50 of Cc1c(-c2ccc(-c3ccccc3)cc2)nc2cc(F)ccc2c1C(=O)O
Response: < 0.5 µg/mL

Request: Give the value of IC50 reported for the following: Cc1c(-c2ccc(-c3ccccc3)cc2)nc2cc(Cl)c(Cl)cc2c1C(=O)O
Response: 3.2 µg/mL

Request: Report IC50 for O=C(O)c1cc(-c2ccc(C3CCCCC3)cc2)nc2ccc(F)cc12
Response: 0.02 µg/mL

Request: Specify measured IC50 for Cc1c(-c2ccc(-c3ccccc3)cc2)nc2cc(Cl)ccc2c1C(=O)O .
Response: > 5 µg/mL

Request: Supply measured IC50 of CCN(CC)CCOC(=O)c1c(C)c(-c2ccc(-c3ccccc3F)cc2)nc2ccc(F)cc12 in your reply.
Response: > 1 µg/mL

Request: Fill in reported IC50 for this entry: Cc1ccc(-c2ccc(-c3nc4ccc(F)cc4c(C(=O)O)c3C)cc2)cc1Cl
Response: > 1 µg/mL

Request: Please look at this molecule and report its IC50: Cc1c(-c2ccc(-c3ccccc3F)cc2)nc2ccc(F)c(Cl)c2c1C(=O)O
Response: < 0.1 µg/mL

Request: Give a short answer stating reported IC50 for Cc1c(-c2ccc(SC(C)C)cc2)nc2ccc(F)cc2c1C(=O)O .
Response: 0.24 µg/mL
